# MEASURED ON: Cytochrome P450 1A2 (Homo sapiens) (UniProt P05177)
# Sequence (P05177 whole entry, looked up): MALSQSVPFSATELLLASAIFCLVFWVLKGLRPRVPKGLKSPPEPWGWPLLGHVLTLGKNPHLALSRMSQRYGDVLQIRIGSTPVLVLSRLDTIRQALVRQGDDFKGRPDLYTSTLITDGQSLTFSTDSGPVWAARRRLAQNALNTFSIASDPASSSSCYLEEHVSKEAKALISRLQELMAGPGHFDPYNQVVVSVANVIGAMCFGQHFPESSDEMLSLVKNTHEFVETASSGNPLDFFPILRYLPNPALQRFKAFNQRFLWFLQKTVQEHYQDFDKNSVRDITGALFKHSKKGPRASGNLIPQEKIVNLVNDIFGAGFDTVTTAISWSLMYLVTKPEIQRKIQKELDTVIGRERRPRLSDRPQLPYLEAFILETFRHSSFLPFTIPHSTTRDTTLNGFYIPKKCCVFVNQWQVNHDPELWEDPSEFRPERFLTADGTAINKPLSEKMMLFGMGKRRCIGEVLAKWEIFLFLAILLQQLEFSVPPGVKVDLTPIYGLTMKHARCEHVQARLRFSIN
# TEST DESCRIPTION: Cytochrome panel assay with activity outcomes
# MEASUREMENT CONTEXT: recombinant CYP, pro-luciferin dealkylation, luminescence, p450-cyp1a2; series mostly up to 57.1 µM
# Description: The P450 gene superfamily is involved in the metabolism and clearance of xenobiotics. This assay used various human CYP P450 isozymes to measure the dealkylation of various pro-luciferin substrates to luciferin. The luciferin is then measured by luminescence after the addition of a luciferase detection reagent. […] Inhibitors and some substrates limit the production of luciferin, and decrease measured luminescence. […] 8, Detection, 1 sec, ViewLux luminescent read […]
The campaign covered roughly 16,000 compounds. About 5,700 (36%) were called active. Roughly 24% stayed inconclusive and do not appear here. This is one part of the list.
PROPERTY: AC50

Consider the following illustrative entries.
INSERT INTO results (compound, property, reported_measurement) VALUES
  ('CC1CCC(=NNC(=O)Cc2ccccc2)CC1 (configuration not stated)', 'AC50', 'inactive'),
  ('O=C(O)c1sc2cc(C(F)(F)F)cnc2c1-c1ccccc1', 'AC50', 'inactive'),
  ('FC(F)(F)c1nnc2c(Sc3ccc(Cl)cc3)nc3ccccc3n12', 'AC50', '0.1 µM (active)'),
  ('O=C(O)c1cccnc1Nc1cccc(C(F)(F)F)c1', 'AC50', '5.01 µM (active)'),
  ('CCOC(=O)C1CN(S(=O)(=O)c2cccc(C(F)(F)F)c2)c2cc(CC(=O)OC)ccc2O1 (configuration not stated)', 'AC50', 'inactive');

Then there is this compound:
Would you mind telling me what AC50 value was observed for "O=C(COC(=O)c1cccnc1Nc1cccc(C(F)(F)F)c1)NCc1ccc2c(c1)OCO2" ?
3.55 µM (active)
